system: rodent lifetime carcinogenesis bioassay, tumor incidence TD50; assay: carcinogenic potency in animals, long-term in vivo studies, CPDB compilation (AID 1745844); conditions: rat; strain Fischer 344; females; in drinking water; site: palate; lesion: squamous-cell papilloma; dosed 96 weeks; study length 97 weeks
measured.attribute: TD50 (mg/kg/day)
Write the value in mg/kg/day as a bare number.

Give the measured TD50 of COc1cc(-c2ccc(N=Nc3c(S(=O)(=O)O)cc4cc(S(=O)(=O)O)cc(N)c4c3O)c(OC)c2)ccc1N=Nc1c(S(=O)(=O)O)cc2cc(S(=O)(=O)O)cc(N)c2c1O .
157

====

test system: rodent lifetime carcinogenesis bioassay, tumor incidence TD50; assay: carcinogenic potency in animals, long-term in vivo studies, CPDB compilation (AID 1745844); settings: rat; strain F344/DuCrj; males; in feed; site: adrenal gland; lesion: pheochromocytoma; dosed 104 weeks; study length 104 weeks
Activity calls are given as the source filed them. The rule behind the calls is not given here.
measured.attribute: TD50

Provide the documented TD50 with rodent lifetime carcinogenesis bioassay, tumor incidence TD50 as the system for CCCCC1(COC(=O)CCC(=O)O)C(=O)N(c2ccccc2)N(c2ccccc2)C1=O
471 mg/kg/day (inactive)

====

system: rodent lifetime carcinogenesis bioassay, tumor incidence TD50; test: carcinogenic potency in animals, long-term in vivo studies, CPDB compilation (AID 1745844); conditions: rat; strain Fischer 344; females; in drinking water; site: Zymbal's gland; lesion: adenoma; dosed 96 weeks; study length 97 weeks
measured.attribute: TD50 (mg/kg/day)
Write the value in mg/kg/day as a bare number.

Give the measured TD50 of COc1cc(-c2ccc(N=Nc3c(S(=O)(=O)O)cc4cc(S(=O)(=O)O)cc(N)c4c3O)c(OC)c2)ccc1N=Nc1c(S(=O)(=O)O)cc2cc(S(=O)(=O)O)cc(N)c2c1O .
321

====

tested on: rodent lifetime carcinogenesis bioassay, tumor incidence TD50; test: carcinogenic potency in animals, long-term in vivo studies, CPDB compilation (AID 1745844); settings: mouse; strain B6C3F1; females; in feed; site: liver; lesion: hepatocellular adenoma; dosed 72 weeks; study length 84 weeks
measured.attribute: TD50
I'd appreciate it if you included the unit after the number.

Provide the documented TD50 with rodent lifetime carcinogenesis bioassay, tumor incidence TD50 as the system for CCOc1ccc(NC(=O)CC(C)O)cc1 (stereo unspecified)
4000 mg/kg/day

====

system: rodent lifetime carcinogenesis bioassay, tumor incidence TD50; assay: carcinogenic potency in animals, long-term in vivo studies, CPDB compilation (AID 1745844); conditions: rat; strain Fischer 344; females; inhaled; site: brain, meninges; lesion: granular-cell tumor, benign; dosed 105 weeks; study length 105 weeks
measured.attribute: TD50 (mg/kg/day)
Write the value in mg/kg/day as a bare number.

Give the measured TD50 of C=CC(=C)C .
40600

====

test system: rodent lifetime carcinogenesis bioassay, tumor incidence TD50; test: carcinogenic potency in animals, long-term in vivo studies, CPDB compilation (AID 1745844); details: mouse; strain B6C3F1; males; oral dosing; site: lung; lesion: adenoma; dosed 76 weeks; study length 76 weeks
Activity calls are given as the source filed them. How the calls were made is not given here.
measured.attribute: TD50

Give the measured TD50 of CCN(CC)C(=S)S[Te](SC(=S)N(CC)CC)(SC(=S)N(CC)CC)SC(=S)N(CC)CC .
108 mg/kg/day

Follow-up entry: O=C1NCCN1
242 mg/kg/day (inactive)

Follow-up entry: Oc1ccc(OCc2ccccc2)cc1
382 mg/kg/day (inactive)

Follow-up entry: S=C(SSSSSSC(=S)N1CCCCC1)N1CCCCC1
113 mg/kg/day (inactive)

Follow-up entry: Oc1c(Cl)cc(Cl)cc1Sc1cc(Cl)cc(Cl)c1O
88.2 mg/kg/day

Follow-up entry: CCCCN(CCCC)C(=S)[S-].CCCCN(CCCC)C(=S)[S-].[Zn+2]
1050 mg/kg/day (inactive)

Follow-up entry: O=NN(c1ccccc1)c1ccccc1
9670 mg/kg/day

Follow-up entry: CC(Oc1cc(Cl)c(Cl)cc1Cl)C(=O)O (centres undefined)
95.2 mg/kg/day (inactive)

Follow-up entry: CC(Oc1cc(Cl)ccc1Cl)C(=O)O (centres undefined)
36.7 mg/kg/day (inactive)

Follow-up entry: CCCCCCCCCCCCN=C(N)N
30.1 mg/kg/day (inactive)

Follow-up entry: CCN(CC)C(=S)SSC(=S)N(CC)CC
43.2 mg/kg/day

Follow-up entry: CCN(CC)C(=S)S
468 mg/kg/day

Follow-up entry: Clc1ccc(C(c2ccc(Cl)cc2)C(Cl)Cl)cc1
120 mg/kg/day

Follow-up entry: CC(C)Oc1ccc(Nc2ccccc2)cc1
2180 mg/kg/day (inactive)

====

system: rodent lifetime carcinogenesis bioassay, tumor incidence TD50; assay: carcinogenic potency in animals, long-term in vivo studies, CPDB compilation (AID 1745844); settings: rat; strain Fischer 344; males; in feed; site: thyroid gland; lesion: follicular-cell adenoma + follicular-cell carcinoma; dosed 78 weeks; study length 105 weeks
measured.attribute: TD50 (mg/kg/day)
Write the value in mg/kg/day as a bare number.

Give the measured TD50 of Nc1ccc(Cl)cc1N .
3380

====

system: rodent lifetime carcinogenesis bioassay, tumor incidence TD50; test: carcinogenic potency in animals, long-term in vivo studies, CPDB compilation (AID 1745844); settings: rat; strain Fischer 344; males; by gavage; site: kidney tubule; lesion: several types; types named in the paper; dosed 35 weeks; study length 120 weeks
measured.attribute: TD50

Give the measured TD50 of O=NN(CCO)C(=O)NCCCl .
0.663 mg/kg/day

====

tested on: rodent lifetime carcinogenesis bioassay, tumor incidence TD50; assay: carcinogenic potency in animals, long-term in vivo studies, CPDB compilation (AID 1745844); details: mouse; strain Swiss Webster; females; inhaled; site: lung; lesion: several types; types named in the paper; dosed 62 weeks; study length 62 weeks
measured.attribute: TD50 (mg/kg/day)
Write the value in mg/kg/day as a bare number.

Give the measured TD50 of CCC=C(CC)[N+](=O)[O-] .
0.687

====

test system: rodent lifetime carcinogenesis bioassay, tumor incidence TD50; experiment: carcinogenic potency in animals, long-term in vivo studies, CPDB compilation (AID 1745844); settings: rat; strain Osborne-Mendel; females; in feed; site: liver; lesion: hemangioma; dosed 117 weeks; study length 117 weeks
The source made the active and inactive calls. The rule behind the calls is not given here.
measured.attribute: TD50

Give the measured TD50 of CC(COc1ccc(C(C)(C)C)cc1)OS(=O)OCCCl (stereo unspecified) .
256 mg/kg/day (inactive)

====

tested on: rodent lifetime carcinogenesis bioassay, tumor incidence TD50; assay: carcinogenic potency in animals, long-term in vivo studies, CPDB compilation (AID 1745844); conditions: rat; strain Sprague-Dawley; females; in feed; site: any site (literature study); lesion: several types; types named in the paper; dosed 78 weeks; study length 104 weeks
measured.attribute: TD50 (mg/kg/day)
Write the value in mg/kg/day as a bare number.

Provide the documented TD50 with rodent lifetime carcinogenesis bioassay, tumor incidence TD50 as the system for CCOc1ccc(NC(C)=O)cc1
1210

====

test system: rodent lifetime carcinogenesis bioassay, tumor incidence TD50; test: carcinogenic potency in animals, long-term in vivo studies, CPDB compilation (AID 1745844); details: mouse; strain B6C3F1; females; in feed; site: stomach; lesion: squamous-cell carcinoma; dosed 103 weeks; study length 104 weeks
measured.attribute: TD50

Give the measured TD50 of O=P(OCC(Br)CBr)(OCC(Br)CBr)OCC(Br)CBr (stereo unspecified) .
611 mg/kg/day

====

tested on: rodent lifetime carcinogenesis bioassay, tumor incidence TD50; test: carcinogenic potency in animals, long-term in vivo studies, CPDB compilation (AID 1745844); settings: rat; strain Sprague-Dawley; males; inhaled; site: extrahepatic tissue; lesion: angiosarcoma; dosed 25 weeks; study length 115 weeks
measured.attribute: TD50 (mg/kg/day)
Write the value in mg/kg/day as a bare number.

Give the measured TD50 of C=CCl .
468

====

system: rodent lifetime carcinogenesis bioassay, tumor incidence TD50; experiment: carcinogenic potency in animals, long-term in vivo studies, CPDB compilation (AID 1745844); conditions: mouse; strain Charles River CD1; males; in drinking water; site: all sites; lesion: hemangioma; dosed 52 weeks; study length 52 weeks
measured.attribute: TD50 (mg/kg/day)
Write the value in mg/kg/day as a bare number.

Give the measured TD50 of CN(C)N .
33.4

====

system: rodent lifetime carcinogenesis bioassay, tumor incidence TD50; assay: carcinogenic potency in animals, long-term in vivo studies, CPDB compilation (AID 1745844); conditions: rat; strain Fischer 344; females; in drinking water; site: any site (literature study); lesion: several types; types named in the paper; dosed 103 weeks; study length 104 weeks
The source made the active and inactive calls. No rule for the calls is given here.
measured.attribute: TD50

Provide the documented TD50 with rodent lifetime carcinogenesis bioassay, tumor incidence TD50 as the system for F
73.9 mg/kg/day (inactive)

====

test system: rodent lifetime carcinogenesis bioassay, tumor incidence TD50; assay: carcinogenic potency in animals, long-term in vivo studies, CPDB compilation (AID 1745844); conditions: rat; strain F344/DuCrj; females; inhaled; site: kidney; lesion: renal-cell adenoma; dosed 104 weeks; study length 104 weeks
The source made the active and inactive calls. The rule behind the calls is not given here.
measured.attribute: TD50

Give the measured TD50 of ClC(Cl)Cl .
1590 mg/kg/day (inactive)
